# Target of assay: D(1A) dopamine receptor (Homo sapiens) (UniProt P21728)
# Sequence (P21728 whole entry, looked up): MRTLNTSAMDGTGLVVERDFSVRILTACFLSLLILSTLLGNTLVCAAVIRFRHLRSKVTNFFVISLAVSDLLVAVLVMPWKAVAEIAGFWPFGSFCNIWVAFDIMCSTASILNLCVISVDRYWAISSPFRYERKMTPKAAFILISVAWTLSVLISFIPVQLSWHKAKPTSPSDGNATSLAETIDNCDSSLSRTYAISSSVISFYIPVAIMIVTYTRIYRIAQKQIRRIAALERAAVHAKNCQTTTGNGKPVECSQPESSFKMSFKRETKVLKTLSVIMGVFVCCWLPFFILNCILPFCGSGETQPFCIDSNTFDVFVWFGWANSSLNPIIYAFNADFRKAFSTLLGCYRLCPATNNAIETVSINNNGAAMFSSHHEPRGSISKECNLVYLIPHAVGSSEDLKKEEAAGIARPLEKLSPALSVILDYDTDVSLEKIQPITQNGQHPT
# Test method notes: Antagonist of Human D 1 Dopamine Receptor: qHTS; also: % is scaled to controls: 0 for no effect and ±100 for the full control effect
# Particulars: HEK293 TREx D1 cells, calcium flux, dopamine EC80; at 10 µM; stronger effect = lower value
The whole screen tested about 360,000 compounds, of which about 11,000 (3.1%) were called active. For the sample, actives were picked, then their nearest neighbours and some compounds at random.
Readout type: activity change, negative = inhibition (%)

> print(dat)
                                    molecule                            readout.type  unit.abbreviation  measured
 1  CCOc1cc(C)c(Cl)cc1S(=O)(=O)n1nnc2ccccc21  activity change, negative = inhibition                  %     -41.9
 2  Cc1ccc(C(=O)CSc2nc(-c3ccccc3)nc3c2CCCC3)c(C)c1  activity change, negative = inhibition                  %      17.2
 3  COc1cc(CCC(=O)N2CCN(c3ccccc3Cl)CC2)cc(OC)c1OC  activity change, negative = inhibition                  %       -35
 4  COc1ccc(/C=C/C(=O)Nc2c(C)nn(C)c2C)cc1COc1ccc(Br)cc1  activity change, negative = inhibition                  %      9.14
 5  Cc1ccc2nc(COc3ccccc3NC(=O)Nc3ccc(F)c(Cl)c3)cc(=O)n2c1  activity change, negative = inhibition                  %     -18.5
 6  CC(Sc1nnc(-c2cccs2)n1C1CC1)C(=O)NCC1CCCO1 (stereo not drawn)  activity change, negative = inhibition                  %     -30.6
 7  CCN(C(=O)CN1C(=O)/C(=C/c2ccc(F)cc2)SC1=S)C1CCS(=O)(=O)C1 (stereo not drawn)  activity change, negative = inhibition                  %      6.56
 8               CSc1ncccc1C(=O)Nc1ccc(C)cn1  activity change, negative = inhibition                  %      25.9
 9  O=C(C1CC1)N1CCc2cc(Br)cc(S(=O)(=O)N3CCN(c4ccccc4F)CC3)c21  activity change, negative = inhibition                  %     -2.36
10               CSc1ncccc1C(=O)NCc1ccccc1Cl  activity change, negative = inhibition                  %     -34.3
11  CC(Sc1nn(-c2ccc(Cl)cc2)c(=S)s1)C(=O)NCC1CCCO1 (stereo not drawn)  activity change, negative = inhibition                  %    -0.972
12           COc1ccc(CNc2ccc3c(c2)CCC3)cc1OC  activity change, negative = inhibition                  %      9.59
13     Cc1cc(C)nc(NC(=O)/C=C/c2ccc(Cl)cc2)n1  activity change, negative = inhibition                  %      4.01
14      CCOc1cc(C)c(S(=O)(=O)NCc2ccccn2)cc1C  activity change, negative = inhibition                  %       -15
15  Cc1nc(SCc2ccc(F)cc2)c([N+](=O)[O-])[nH]1  activity change, negative = inhibition                  %       8.5
16  CCOc1ccc(S(=O)(=O)N2CCC(C(=O)OCc3ccc(OC)cc3)CC2)cc1  activity change, negative = inhibition                  %     -16.6
17  Cc1ccc(N(C(=O)Cc2cccs2)C(C(=O)NCC2CCCO2)c2ccncc2)cc1 (stereo not drawn)  activity change, negative = inhibition                  %    -0.595
18  CCn1nc(C)c(NC(=O)/C=C/c2ccc(OC)c(COc3ccc(Br)cc3)c2)c1C  activity change, negative = inhibition                  %     -39.8
19            COc1ccc(CNc2cc(C)cc(C)c2)cc1OC  activity change, negative = inhibition                  %     -45.1
20    CCCCCOc1ccc(CSC2=NCCN2)cc1[N+](=O)[O-]  activity change, negative = inhibition                  %     -42.1
21  O=C1/C(=C/c2ccc(F)cc2)SC(=S)N1CCCC(=O)N1CCCCC1CCO (stereo not drawn)  activity change, negative = inhibition                  %     -30.8
22     CCOc1ccc(S(=O)(=O)N2CCCCCC2)c2ccccc12  activity change, negative = inhibition                  %      1.18
23  COC(=O)c1c(C)[nH]c(C(=O)/C=C/c2ccc(Cl)cc2)c1C  activity change, negative = inhibition                  %     -47.4
